src = PubChem BioAssay (NCI)

# System: COLO 205 colon
# Assay protocol: NCI tumour cell line growth inhibition, 48 h
# reported log10 TGI; entries follow
Use the decimal logarithm of TGI (µM).

Illustrative cases are given below, each with its answer.
Req: Requested read-out: log10 TGI. Entry: O=C1NCN(c2ccccc2)C12CCN(CCCSc1ccc(F)cc1)CC2
Resp: 0.51

Req: Here is the next compound: O=C(CN1CCCC1)Nc1ccc2sc3ccccc3c(=O)c2n1
Resp: 1.65

New cases:
Req: Requested read-out: log10 TGI. Entry: CC1OC2OC3C(OCC(O)C3O)OC(=O)[C@]34CCC(C)(C)CC3C3=CCC5[C@@]6(C)C[C@H](O)[C@H](OC7OC(CO)C(O)C(O)C7OC7OC(COC(=O)CC(C)(O)CC(=O)OC1C(O)C2O)C(O)C(O)C7O)[C@@](C)(CO)C6CC[C@@]5(C)[C@]3(C)CC4 (some centres not stated)
Resp: 0.47

Req: Here is the next compound: CCN1CCN(Cc2ccc3cc(C(=O)Nc4cc(NC(=O)c5ccc6c(c5)OCCO6)ccc4F)ccc3n2)CC1
Resp: 0.18

Req: Here is the next compound: O=C1C=Cc2c(I)sc(I)c21
Resp: 1.57

Req: Here is the next compound: O=C1c2ccc3ccccc3c2CCC1N1CCCCC1 (configuration not stated)
Resp: 1.62

Req: Here is the next compound: C#Cc1ccc(-n2c(/C=C/c3ccc4ccccc4n3)nc3ncccc3c2=O)cc1
Resp: -0.13

Req: Here is the next compound: CC(=O)OCC1OC(OC2CC3C(C)(C)C(=O)CC[C@]3(C)C3CC[C@]45C[C@]4(CCC5[C@@H](C)CC(O)C(O)C(C)(C)O)[C@]23C)C(O)C(O)C1O (some centres not stated)
Resp: 1.27

Req: Here is the next compound: N=C(N)c1ccc(-c2ccc(-c3ccc(C(=N)N)cc3)o2)cc1
Resp: 1.64

Req: Here is the next compound: COc1ccc2oc(-c3ccc(Cl)cc3)c(N3CCN(C)CC3)c2c1
Resp: 0.56

Req: Here is the next compound: CCOC(=O)c1c2c(n3cccc(F)c13)C(=O)c1ncccc1C2=O
Resp: 0.86

---

# Test system: A549 NSCLC
# Assay protocol: NCI tumour cell line growth inhibition, 48 h
# reported TGI; entries follow

Illustrative cases are given below, each with its answer.
Req: Requested read-out: TGI. Entry: C/C(CC(=O)Nc1ccc([N+](=O)[O-])cc1)=N/N=C(N)N
Resp: > 100 µM

Req: Here is the next molecule: CCNC(=O)Cc1nc2c(=O)[nH]cnc2n1C1OC(CO)C(O)C1O (stereo unspecified)
Resp: > 100 µM

// moving on: another record for TGI
Req: Requested read-out: TGI. Entry: [O-][n+]1onc2c1-c1nonc1CC2
Resp: > 100 µM

---

# System: NCI-H23 lung
# Assay protocol: NCI tumour cell line growth inhibition, 48 h; in the data active means GI50 below about 0.43 µM; inactive means the rest
Where a SMILES comes first, the peptide text is derived from it. Bridges are numbered along the chain shown (N, C = ends). Roman numbers before positions name the chains, in order. [ ]: non-standard residue; d: D form. The star is where a group is joined. Heptadecanoyl = CCCCCCCCCCCCCCCCC(=O)*; Phg = N[CH](C(=O)O)c1ccccc1
Choose one outcome from this list and give only that: yes for active, no for inactive

Record excerpt, results attached:
Req: // param item: Nc1nn(C(=O)Nc2ccc(Cc3ccccc3)cc2)c2ccccc12 ; yields the recorded call
Resp: no

Req: Here is the next compound: O=C(Nc1ncc(Cc2ccc(Cl)cc2)s1)c1ccc2c(c1)OCCO2
Resp: yes

Req: Here is the next compound: CCCCCCCCCCCCCCCCC(=O)N1CCCC1C(=O)NCC(=O)NC(C(=O)N1CCCC1C(=O)NC(CO)C(=O)NC(Cc1ccc(O)cc1)C(=O)NC(CCCCNC(=O)C1CCCN1C(=O)C(CCCCN)NC(=O)C(CCCCN)NC(=O)C(CCCCN)NC(=O)C(CCCNC(=N)N)NC(=O)C(CCCCN)NC(=O)C(N)C(C)C)C(=O)NC(CC(C)C)C(=O)NC(CCCNC(=N)N)C(=O)N1CCCC1C(=O)NCC(N)=O)c1ccccc1 (configuration not stated) (I: Heptadecanoyl-PG[Phg]PSYKLRPG-NH2 / II: H-VKRKKKP; amide I:7-II:C; configuration not given here)
Resp: no

Req: Here is the next compound: O=C1C=CC(=O)N1CCCCCCCCCCN1C(=O)C=CC1=O
Resp: no

Req: Here is the next compound: NNc1nc(-c2ccccn2)nc2sc3c(c12)CCCCCC3
Resp: no

New cases:
Req: // param item: Cc1ccc(C2CC(c3cccc(Nc4ccncc4)c3)=NN2c2ccc(Cl)cc2)cc1 (configuration not stated) ; yields the recorded call
Resp: no

Req: Here is the next compound: Cn1cc(C2=C(c3cccc(NCC(O)CO)c3)C(=O)NC2=O)c2cc(Cl)ccc21 (configuration not stated)
Resp: no
